# measurement protocol: NCI Yeast Anticancer Drug Screen. Data for the mlh1 rad18 strain (AID 175)
# stated conditions: S. cerevisiae mlh1 rad18 strain growth inhibition; at 50.0 µM
About 79,000 compounds went through this panel and 15% of them were active in at least one assay; those are over-represented in the sample as a whole. Active and inactive are the calls of the source. No stated cut-off is given here; in the data, active means growth inhibition above about 70%; inactive means the rest.
Output constraint: value belongs to true for active, false for inactive

>>> class_label("NC(=O)NC(=O)N/N=C/c1ccc([N+](=O)[O-])o1")
"false"
>>> class_label("CCc1cccc(C)c1NC(=O)C(=O)C(C#N)c1ccc(C)cc1 (stereo unspecified)")
"false"
>>> class_label("O=S1(=O)CC2C1C1(Cl)OC2(Cl)c2ccccc21 (stereo unspecified)")
"false"
>>> class_label("O=C(O)c1nnsc1-c1ccc(-c2snnc2C(=O)O)cc1")
"false"
>>> class_label("Oc1c(Cl)cc(Cl)c(Cc2c(Cl)cc(Cl)c(O)c2Cl)c1Cl")
"false"

What classification did OC(c1ccccc1)(c1ccccc1)C(F)(Cl)Cl end up with in this test?
false

###

# measurement protocol: NCI Yeast Anticancer Drug Screen. Data for the mec2-1 strain (AID 157)
# stated conditions: S. cerevisiae mec2-1 strain, at 50.0 µM, stronger effect = higher value
This is part of a sample that, as a whole, favours compounds with a hit. Of some 79,000 tested, about 15% had one in any assay.
Category scheme (growth inhibition): low range: < 30%; mid range: ≥ 30% and < 90%; high range: ≥ 90%

>>> class_label("CC(=O)Oc1ccc(C)cc1C(C)(C)C")
"mid range"
>>> class_label("CCc1ccc2c(-c3ccccc3)c3ccccc3c(-c3ccccc3)c2c1")
"low range"
>>> class_label("Cc1ccc(NC(=S)N(CCC#N)C2CCCCC2)cc1C")
"low range"
>>> class_label("O=[N+]([O-])c1c(C=Nc2ccccc2)oc(-c2c(O)ccc3ccccc23)c1-c1c(O)ccc2ccccc12")
"high range"
>>> class_label("O=C1C(Cl)=C(Nc2ccc(S(=O)(=O)O)cc2)C(=O)c2ccccc21")
"high range"
>>> class_label("CC1=C(C)C(=O)C(CNCc2ccccc2)=[C-]C1=O.[Co].[c-]1[c-][c-][cH-][c-]1")
"mid range"
>>> class_label("O=[N+]([O-])c1ccc2c(c1)CCc1ccccc1-2")
"low range"

Lab note: next molecule to report on.
Please indicate the class for FC(F)(F)COP1(OCC(F)(F)F)=NP(OCC(F)(F)F)(OCC(F)(F)F)=NP(c2ccccc2)(c2ccccc2)=N1 based on its growth inhibition.
low range

###

Below, each entry is listed with its recorded growth inhibition.
# measurement protocol: NCI Yeast Anticancer Drug Screen. Data for the mec2-1 strain (AID 157)
# stated conditions: S. cerevisiae mec2-1 strain, at 50.0 µM, stronger effect = higher value
About 79,000 compounds went through this panel and 15% of them were active in at least one assay; those are over-represented in the sample as a whole.
Respond with the bare value in %.

Worked examples follow.
>>> result("Cc1cc(N=NC(N)=S)c2ccccc2c1O")
24.9
>>> result("CCCn1cnc2c(SCc3ccc(Cl)cc3Cl)nc(N)nc21")
97.2
>>> result("O=C(c1c(F)c(F)c(F)c(F)c1F)n1c(=S)n(C(=O)c2c(F)c(F)c(F)c(F)c2F)c2ccccc21")
71.4
>>> result("CC(=O)OC1=C(Br)CCc2ccccc21")
97.3
>>> result("OCCSC(=S)Nc1ccc(Cl)c(Cl)c1")
99.7
>>> result("O=C(SCCCc1ccccc1)c1cc([N+](=O)[O-])cc([N+](=O)[O-])c1")
66.3

Need growth inhibition of COc1cccc2c1C(=O)c1c(O)c3c(c(O)c1C2=O)CC(O)(C(=O)CO)CC3OC1CC(N)C(O)C(C)O1.[Cl][Pt+2][Cl].[NH2-].[NH2-] (stereo unspecified) , thanks.
49.5

Next up: O=C1C(=O)c2ccccc2C=C1Br
99.2

Next up: Cc1cc(=O)n(C)c2c(C)cccc12
15.9

Next up: NC(=Nc1ccccc1)c1ccc2c(c1)c1c(n2Cc2ccccc2)CCCC1
99.2

Next up: O=C(Nc1ccccc1O)/C(Cl)=C/Cl
97.8

###

# measurement protocol: NCI Yeast Anticancer Drug Screen. Data for the rad50 strain (AID 155);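 further: 0% = growth of vehicle-only cultures of the same strain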
# stated conditions: S. cerevisiae rad50 strain growth inhibition; at 50.0 µM; stronger effect = higher value
This is part of a sample that, as a whole, favours compounds with a hit. Of some 79,000 tested, about 15% had one in any assay.
Below, each entry is listed with its recorded growth inhibition.
Respond with the bare value in %.

Worked examples follow.
>>> result("COc1ccc2c(c1)CC1c3c(ccc(OC)c3O)CC2N1C (configuration not stated)")
86.7
>>> result("CC(=O)N1C(c2[nH]c3ccccc3c2-c2ccccc2)CCN1c1ccccc1 (configuration not stated)")
64.1
>>> result("CC(=O)Oc1cccc2c(C(=O)CCl)ccnc12")
99.1
>>> result("O=C(CBr)C1(Br)CCN(Cc2ccccc2)CC1")
99.3
>>> result("O[Si](O)(c1ccccc1)c1ccccc1")
96.2
>>> result("O=C(Nc1ccccc1)c1ccc([N+](=O)[O-])o1")
96.3
>>> result("CCN(CC)c1ccc(Cl)c2c1C(O)(C(C)C)C2(C)C (configuration not stated)")
88.2
>>> result("COc1cccc(C2CC(C)(O)Oc3cc4c(cc32)OCO4)c1 (configuration not stated)")
33.8
>>> result("CCn1c(O)c(C=Nc2ccccc2)s/c1=N/Nc1nc(-c2ccc(O)c(O)c2)cs1")
57
>>> result("CNC(=O)N(C)/N=C/c1ccc([N+](=O)[O-])o1")
84.5

Need growth inhibition of CC(C)C(=O)c1ccc([N+](=O)[O-])o1 , thanks.
98.8

Next up: CC(Br)Cc1ccc2c(c1)OCO2 (configuration not stated)
1.15

###

Below, each entry is listed with its recorded growth inhibition.
# measurement protocol: NCI Yeast Anticancer Drug Screen. Data for the rad50 strain (AID 155);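 further: 0% = growth of vehicle-only cultures of the same strain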
# stated conditions: S. cerevisiae rad50 strain growth inhibition; at 50.0 µM; stronger effect = higher value
# Protocol: Growth inhibition of yeast strains with defined genetic alterations is measured as a screen for potential anti-cancer activity. Selected strains with alterations in DNA damage repair or cell cycle control were exposed to compounds and growth inhibition was measured relative to vehicle treated controls. The strain used in this assay is rad50
This is part of a sample that, as a whole, favours compounds with a hit. Of some 79,000 tested, about 15% had one in any assay.
Respond with the bare value in %.

>>> result("CC(=O)c1ccc(Cl)c(N=Cc2cc(Br)ccc2O)c1")
68.4
>>> result("CC(=O)Oc1c2ccccc2c(C)c2c1ccc1ccccc12")
96

Pending compound:
Need growth inhibition of O=C1C=C(c2ccccc2)O/C1=C\C(=O)c1ccc(Cl)cc1 , thanks.
89.3

###

# measurement protocol: NCI Yeast Anticancer Drug Screen. Data for the mlh1 rad18 strain (AID 175)
# stated conditions: S. cerevisiae mlh1 rad18 strain growth inhibition; at 50.0 µM; stronger effect = higher value
This is part of a sample that, as a whole, favours compounds with a hit. Of some 79,000 tested, about 15% had one in any assay.
Below, each entry is listed with its recorded growth inhibition.
Respond with the bare value in %.

Worked examples follow.
>>> result("Nc1nc(Cl)cc(NCC2(CO)CC(CCCc3ccccc3)C2)n1 (stereo unspecified)")
-48.1
>>> result("COc1ccc(C2CC(=O)CC(=O)C2)cc1")
55.5
>>> result("Cn1c2c(c3ccccc31)CCN(CCCN1CCN(c3ccccc3)CC1)C2=O")
84.7
>>> result("COC(=O)C(=O)CC(=O)c1cccc(Cl)c1")
74.7

Need growth inhibition of CC(C)C(=O)/C=C/c1ccc(Cl)cc1Cl , thanks.
40.3

Next up: Cc1ccc(NC(=S)SCc2ccc(Cl)cc2)cc1Br
90.8

Next up: Cc1cc(C)c(S(=O)(=O)n2ccnc2)c(C)c1
-0.9

Next up: O=C(O)/C=C/C(=O)c1ccc(O)cc1
96

Next up: CCN(CC)Cc1cc(Nc2c3ccccc3nc3c4ccccc4n(C)c23)ccc1O
42.9

Next up: COc1ccc(C=O)cc1C[P+](c1ccccc1)(c1ccccc1)c1ccccc1
97.9

Next up: C/C(=N\Oc1ncc([N+](=O)[O-])c(O/N=C(\C)c2ccccc2)n1)c1ccccc1
94.2

Next up: N#Cc1c(-c2ccc(Cl)cc2)c(-c2ccc(Cl)cc2)nn(CCOC(=O)CN)c1=O
87

Next up: CC(C)(C)[Si](C)(C)OCC1OC(n2cc(I)c(N)nc2=O)C(O[Si](C)(C)C(C)(C)C)C1O[Si](C)(C)C(C)(C)C (stereo unspecified)
86.7

Next up: COC(=O)c1c2oc3c(C(=O)OC)cccc3nc-2cc(N)c1=O
22.5

Next up: CCCCCCCCCCCCOc1c(Cl)cc(Cl)c(Cl)c1Cc1c(O)c(Cl)cc(Cl)c1Cl
97.7

Next up: Cc1cc(N=Nc2ccncc2C)ccc1N
66.7

Next up: c1ccc(Cn2nnnc2-c2ccccc2)cc1
14.3

Next up: C=C(CN(C)C)C(=O)c1ccc(Oc2ccccc2)cc1
99.5

Next up: COC(=O)N/N=C(\C)C(CN1CCOCC1)C(c1ccccc1)c1cc2ccccc2oc1=O (stereo unspecified)
2.25

Next up: CC(=O)CC(=O)OCc1ccccc1
97.7

Next up: CCCC(=O)c1ccc(OC)cc1
6.25

Next up: Cc1cc(NCCCN(C)C)c2cc3ccc4cccc5ccc(c2n1)c3c45
97.3

Next up: CC(C)c1ccc(C2C3=C(N=C4SCC(=O)N42)C(=O)c2ccccc23)cc1 (stereo unspecified)
42.2

Every entry's value here was drawn from PubChem BioAssay (NCI).
